The entries below pair compounds with IC50 values for JNK2 (Homo sapiens (Human), UniProt P45984), as found in several publications.

smiles_str	reading
CCCCNC(=O)n1ccc2c(C(=O)c3c[nH]c4ncc(-c5ccc(Cl)cc5)cc34)cccc21	≤ 10 µM
O=C(CN1C(=O)CCc2ncccc21)Nc1scc(Cl)c1-c1nccs1	< 0.1 µM
O=C(Cn1c(=O)ccc2cc(C(F)(F)F)c(F)cc21)Nc1scc(Br)c1-c1ncn[nH]1	< 0.1 µM
O=C(Cn1c(=O)ccc2cnccc21)Nc1scc(Br)c1-c1ncn[nH]1	< 0.1 µM
O=C(Cn1c(=O)ccc2cc(F)ccc21)Nc1scc(Br)c1-c1ncn[nH]1	< 0.1 µM

Q: Endpoint output: IC50 of `O=C(Cn1c(=O)ccc2nc(C(F)(F)F)ccc21)Nc1scc(Cl)c1-c1ncn[nH]1` . Value?
Result: < 0.1 µM

Q: Now this one: `CC(=O)Nc1cccc(-c2cnc3[nH]cc(C(=O)c4cc(O)ccc4F)c3c2)c1`
Result: ≤ 10 µM

Q: And the next one, `CN(C)c1ccc(-c2cnc3[nH]cc(-c4ccoc4)c3c2)cc1` ?
Result: < 0.5 µM

* * *

Below, IC50 values reported for JNK2 (Homo sapiens (Human), UniProt P45984) across several publications.

Reference set (7 entries):
smiles_str	reading
O=C(CN1C(=O)CCc2ncccc21)Nc1scc(Cl)c1-c1nc[nH]n1	< 100 nM
CCCNc1nccc(-c2c(-c3ccc(F)cc3)nc3n2[C@H](Cn2ccc4ccccc42)CC3)n1	250 nM
O=C(Cn1c(=O)ccc2ccc(F)cc21)Nc1scc(Br)c1-c1ncn[nH]1	< 100 nM
CS(=O)(=O)CCCOc1cccc2c1ccn2-c1ccnc(N[C@H]2CC[C@H](C(=O)N3CCC(OC(=O)CCC(=O)O)CC3)CC2)n1	67.9 nM
O=C(CN1C(=O)CCc2cc(C(F)(F)F)ccc21)Nc1scc(Br)c1-c1ncn[nH]1	< 100 nM
COc1cccc(NC(=O)Nc2cccc(C(=O)c3c[nH]c4ncc(-c5cccnc5)cc34)c2)c1	≤ 10000 nM
COc1ccc(CC(=O)Nc2ccsc2N2CCOC2=O)cc1	> 50000 nM

Kindly review the next compound as well.
Q: Need IC50 of `CCCS(=O)(=O)Nc1ccc(F)c(C(=O)c2c[nH]c3ncc(-c4ccc(C(=O)N(C)C)c(C)c4)cc23)c1F` , thanks.
Result: ≤ 10000 nM

* * *

Below: compounds with pIC50 recorded for JNK2 (Homo sapiens (Human), UniProt P45984) in separate published works.
pIC50: −log10 of the molar value.

A selection of reference data follows.
compound	pIC50
O=C([C@H]1CC[C@H](Nc2nccc(-n3nnc4c(-c5ccoc5)cccc43)n2)CC1)N1CCC(O)CC1	6.89
CCCCNC(=O)Nc1ccc(F)c(C(=O)c2c[nH]c3ncc(-c4cccc(C(N)=O)c4)cc23)c1	≥ 5.00
N#Cc1csc(NC(=O)CN2C(=O)CCc3ncccc32)c1-c1nccs1	> 7.00
O=C(CN1C(=O)CCc2ccc(Cl)cc21)Nc1scc(Br)c1-c1ncn[nH]1	> 7.00
Oc1cccc(Cc2c[nH]c3ncc(-c4cccs4)cc23)c1F	≥ 5.00
COC(=O)c1c(Cc2ccc(S(=O)(=O)NCC(O)CO)cc2)c(=O)c2ccc(Cl)cc2n1-c1ccccc1 (centres unmarked)	6.86
CS(=O)(=O)Nc1ccc(F)c(C(=O)c2c[nH]c3ncc(-c4ccccc4)cc23)c1	≥ 5.00
COc1ccc(CC(=O)Nc2ccsc2-n2cccn2)cc1	< 4.30

Q: So what's the measured pIC50 for this one? `N#Cc1ccc2ccc(=O)n(CC(=O)Nc3scc(Br)c3-c3ncn[nH]3)c2c1`
Result: > 7.00

Q: Consider next the compound `O=C1Nc2ccccc2/C1=C/c1c[nH]c2ncccc12` in the same way.
Result: ≥ 5.00

Q: Also need `COC(=O)c1ccc(Cc2c(C(=O)OC)n(-c3ccccc3)c3nc(C)ccc3c2=O)cn1` , thanks.
Result: 6.65

Q: Also `O=C(Nc1cccc(C(=O)c2c[nH]c3ncc(-c4cccnc4)cc23)c1)Nc1cccc(C(F)(F)F)c1F` , if possible.
Result: ≥ 5.00

Q: Similarly, `Cn1cnc(-c2c(Cl)csc2NC(=O)Cn2c(=O)ccc3nc(C(F)(F)F)ccc32)n1` ?
Result: > 7.00

Q: Note, next up: CC(CCO)n1c(=O)ccc2cnc(NC3CCCCC3)nc21 (centres unmarked)
Result: 6.81

Q: Cool, now `Fc1ccc(-c2nc3n(c2-c2ccnc(NC4CCC4)n2)[C@H](COc2ccnc4ccccc24)CC3)cc1`
Result: 6.94

Q: Proceed to `Cc1ccccc1NC(=O)Nc1cccc(C(=O)c2c[nH]c3ncccc23)c1`
Result: ≥ 5.00

* * *

Compiled notes: published IC50 values involving UniProt:P45984.

Use these answered entries as a reference point.
smiles_str	IC50
N#Cc1ccc2c(ccc(=O)n2CC(=O)Nc2scc(Cl)c2-c2nc[nH]n2)c1	< 100 nM
Nc1cccc(-n2c(-c3ncco3)c(Cc3ccccc3)c(=O)c3ccc(Cl)cc32)n1	2090 nM
Cc1n[nH]c(-c2sccc2NC(=O)Cc2cccc3ccccc23)n1	100 to 10000 nM

Q: Quick check: IC50 of `O=C(Nc1cccc(C(=O)c2c[nH]c3ncccc23)c1)Nc1ccc(Cl)c(C(F)(F)F)c1` ?
Result: ≤ 10000 nM

Q: Lookup `COc1ccc(CC(=O)Nc2ccsc2-n2cc(C)cn2)cc1`
Result: 10000 to 50000 nM

Q: What about this molecule? `Cn1ncnc1-c1ncsc1NC(=O)Cc1cccc2cnccc12`
Result: 100 to 10000 nM

Q: Same question, `N#Cc1csc(NC(=O)Cn2c(=O)ccc3cc(C(F)(F)F)ccc32)c1-n1ccnn1` this time
Result: 100 to 10000 nM

Q: Lookup `CCOC1CCN(C(=O)[C@H]2CC[C@H](Nc3nccc(-n4ccc5c(N6CCC(S(C)(=O)=O)CC6)cccc54)n3)CC2)CC1`
Result: 82.7 nM

Q: Next up: `N#Cc1csc(NC(=O)Cn2c(=O)ccc3cc(C(F)(F)F)ccc32)c1-c1nccs1`
Result: < 100 nM

* * *

Collected literature values of IC50 measured for JNK2 (Homo sapiens (Human), UniProt P45984).
value_type: IC50 (nM)

smiles_str	reading
COC(=O)c1cccc(NC2CCN(S(=O)(=O)c3ccc(CNC(=O)c4ccc([N+](=O)[O-])cc4)s3)CC2)c1	390

[I] CS(=O)(=O)N[C@H]1CC[C@H](Nc2nccc(-n3ccc4c(N5CCN(C(=O)CN)CC5)cccc43)n2)CC1
[II] CC(C)(O)c1cccn2c(-c3ccnc(N[C@H]4CC[C@H](CS(C)(=O)=O)CC4)n3)cnc12
Q: Endpoint returns whichever of I and II has the numerically higher IC50. Label of pick, please.
Result: I

* * *

Kindly find below IC50 information for JNK2 (Homo sapiens (Human), UniProt P45984) taken from the literature.

Examples with answers:
smiles_str	IC50
O=C(Cn1c(=O)ccc2c(F)cccc21)Nc1scc(Br)c1-c1ncn[nH]1	< 100 nM
CC(=O)N1CCN(c2cccc3c2ccn3-c2ccnc(NC3CCCCC3)n2)CC1	4030 nM
Cc1ccc(NC(=O)Nc2cccc(C(=O)c3c[nH]c4ncc(-c5cccnc5)cc34)c2)cc1	≤ 10000 nM
O=C(Cc1cccc2ncc(C(F)(F)F)cc12)Nc1scc(Br)c1-c1nc[nH]n1	100 to 10000 nM
O=C(CN1C(=O)CCc2ccccc21)Nc1ccsc1-c1c[nH]cn1	> 10000 nM

Q: Please state recorded IC50 (tested on JNK2 (Homo sapiens (Human), UniProt P45984)) of `O=C(Nc1cccc(C(=O)c2c[nH]c3ncc(-c4cccnc4)cc23)c1)Nc1cc(C(F)(F)F)ccc1Cl`
Result: ≤ 10000 nM

Q: What do you get for `COc1ccc(CC(=O)Nc2ccsc2-c2c[nH]cn2)cc1` ?
Result: > 50000 nM

Q: Same thing, different compound: `O=C(Cc1cccc2cnccc12)Nc1ccsc1-c1cscn1`
Result: 100 to 10000 nM

Q: Next record, please: `O=C(Cc1cccc2cc(F)cnc12)Nc1scc(Br)c1-c1nc[nH]n1`
Result: 100 to 10000 nM

Q: Moving on to `O=C(Cn1c(=O)ccc2cc(F)c(F)cc21)Nc1scc(Br)c1-c1ncn[nH]1`
Result: < 100 nM

* * *

Below are pIC50 values for JNK2 (Homo sapiens (Human)) collected from several publications.
pIC50: −log10 of the molar value.
value_type: pIC50

smiles_str	pIC50
O=C(NC[C@@H]1CCc2nc(-c3ccc(F)cc3)c(-c3ccnc(NC4CCC4)n3)n21)c1ccccc1	7.08

[A] COC(=O)c1c(Cc2ccc(S(=O)(=O)N3CCC(O)CC3)cc2)c(=O)c2ccc(Cl)cc2n1-c1ccccc1
[B] COC(=O)c1c(Cc2ccc(S(=O)(=O)N3CC[C@H](O)C3)cc2)c(=O)c2ccc(Cl)cc2n1-c1ccccc1
[C] O=C(NCc1ccc(S(=O)(=O)N2CCC(n3nnc4ccccc43)CC2)s1)c1ccc(Cl)cc1
[D] Cc1ccccc1-c1cccc2c1ccn2-c1ccnc(N[C@H]2CC[C@H](C(=O)N3CCC(O)CC3)CC2)n1
Q: Rank descending by pIC50. Answer format: the labels, in the requested order.
Result: A, B, D, C
(A: 7.33, B: 7.08, D: 6.66, C: 6.19)
